biological target: T1, human insulin receptor (INSR) on CHOK1 cells (human, UniProt P06213 28-1382); assay: flow cytometry on CHOK1 cells expressing the INSR ortholog; IgG, anti-human IgG APC detection
T1 construct: whole, on cells; CHOK1 cells over-expressing human INSR; also called human INSR; hINSR
Quick list: pEC50 per entry.
API: returns pEC50 as number; meaning -log10 of concentration in mol/L.

Previously resolved entries follow.
Asked: Please look up its pEC50: XPA.15.247.2.011 IgG (antibody, V domains shown, Tested as IgG; also called XPA.15.247.011) VH: EVQLVETGGGVVQPGRSLRLSCAASGFTFSSYAMHWVRQAPGKGLEWVAVISYSGSNKYYADSVKGRFTISRDNSKNTLYLQMNSLRAEDTAVYYCARHEWGFGFDYWGQGTTVTVSS VL: DVVMTQSPLSLPVTLGQPASISCRSSHSLVYGDGNTYLNWFHQRPGQSPRRLIYKVSNRDSGVPDRFAGSGSGTDFTLKISRVEADDFGVFYCMQGTHWPYTFGQGTKLEIKR
Given back: 9.00

Asked: Another: XPA.15.247.2.018 IgG (antibody, V domains shown, Tested as IgG; also called XPA.15.247.2.018 antibody) VH: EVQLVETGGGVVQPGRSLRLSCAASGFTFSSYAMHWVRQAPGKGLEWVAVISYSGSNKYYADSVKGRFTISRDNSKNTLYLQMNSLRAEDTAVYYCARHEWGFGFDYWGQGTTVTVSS VL: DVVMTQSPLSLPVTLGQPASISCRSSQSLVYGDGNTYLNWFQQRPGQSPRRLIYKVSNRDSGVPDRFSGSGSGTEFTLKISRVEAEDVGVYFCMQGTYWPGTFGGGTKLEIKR
Given back: 9.52

Asked: Another: XPA.15.247.2.014 IgG (antibody, V domains shown, Tested as IgG; also called XPA.15.247.014) VH: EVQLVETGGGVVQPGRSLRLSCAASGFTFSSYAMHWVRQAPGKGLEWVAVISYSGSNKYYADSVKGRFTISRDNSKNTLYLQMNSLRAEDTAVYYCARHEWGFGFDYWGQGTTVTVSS VL: DVVMTQSPLSLPVTLGQPASISCRSSQSLVYGDGNTYLNWFQQRPGQSPRRLIYKVSKRDSGVPDRFSGSGSGTDFTLKISRVEAEDVGVYYCMQGTYWPMTFGGGTKLEIKR
Given back: 9.15

Then there is this binder:
Asked: Please look up its pEC50: XPA.15.247 parent antibody (IgG) (antibody, V domains shown, Tested as IgG; also called XPA.15.247 antibody) VH: EVQLVETGGGVVQPGRSLRLSCAASGFTFSSYAMHWVRQAPGKGLEWVAVISYDGSNKYYADSVKGRFTISRDNSKNTLYLQMNSLRAEDTAVYYCARHEWGFGMDVWGQGTTVTVSS VL: DVVMTQSPLSLSVTLGQPASISCRSSLSLVYGDENTYLNWFQQRPGQSPRRLLYKVSDRDSGVPDRFSGSGSGTDFTLKISRVEADDVGVYYCMQGTHWPYTFGQGTKLEIKR
Given back: 8.06
